# Test system: CEM cells HIV-1 protection, formazan growth assay
# protocol notes: NCI AIDS Antiviral Assay
# measurement setup: measured here: growth of uninfected CEM cells
pIC50: −log10 of the molar value.
Answer 0 (no) if pIC50 is under 4, and 1 (yes) if it is 4 or more.

Study these solved cases before continuing.
>>> answer_label("COc1cc2c(cc1O)[C@H](C)C(c1ccc(Cl)cc1)O2 (some centres not stated)")
"1 (yes)"
>>> answer_label("COc1ccc(/C=C/C(=O)C(C)(C)C)cc1OC")
"1 (yes)"
>>> answer_label("CN(C(=O)Cc1ccccc1)n1cn[n+](CC(=O)OC(C)(C)C)c1")
"0 (no)"
>>> answer_label("O=C(O)CCN1c2ccccc2Sc2ccccc21")
"0 (no)"

Then there is this compound:
## Task Could you tell me if the measured pIC50 of CC1(Br)OC(=O)C(C)(Br)OC1=O (configuration not stated) reaches 4 or more?
## Result 0 (no)
